- EXPERIMENTAL_DETAILS: Cytotoxicity against mouse RAW264.7 cells assessed as inhibition of cell viability at 100 uM by MTT assay
- Format: cell-based
- CONDITION_LABEL: read-out: INH
Below is a list of entries, each paired with its recorded cytotoxicity at 100 µM value.

## Task What cytotoxicity at 100 µM value was documented for this compound, CC(=O)[C@H]1[C@@H]2CC[C@H]3C[C@@H](C)[C@](O)(c4ccccc4)[C@H](C[C@@]1(C)O)N32 ?
## Result < 10%

## Task Here is the next compound: CC1CC2CCCN2C(CC(=O)CC2N3CCCC3CC(C)C2(O)c2ccccc2)C1(O)c1ccccc1 (racemic)
## Result < 10%

## Task Here is the next compound: CC(=O)CCCC[C@H]1C[C@@H](C)[C@@](O)(c2ccccc2)CN1
## Result < 10%

* * *

- EXPERIMENTAL_DETAILS: Inhibition of L-rhamnosidase (unknown origin)
READOUT_TYPE: Ki (nM)
Report as a plain number; the unit nM is understood.

## Task What Ki value was documented for this compound, O[C@@H]1[C@@H]2[C@@H](O)CCCN2C[C@@H]1O ?
## Result 450
